# credit: patent US20170066831A1

- TARGET_DESC: T1, cynomolgus (Macaca fascicularis) ST2L extracellular domain with C-terminal His6 tag (Macaca fascicularis (cynomolgus), UniProt Q01638 19-321 (human entry))
- T1 construct: also called cyno ST2L-ECD; cynoST2L-ECD
- T1 chain: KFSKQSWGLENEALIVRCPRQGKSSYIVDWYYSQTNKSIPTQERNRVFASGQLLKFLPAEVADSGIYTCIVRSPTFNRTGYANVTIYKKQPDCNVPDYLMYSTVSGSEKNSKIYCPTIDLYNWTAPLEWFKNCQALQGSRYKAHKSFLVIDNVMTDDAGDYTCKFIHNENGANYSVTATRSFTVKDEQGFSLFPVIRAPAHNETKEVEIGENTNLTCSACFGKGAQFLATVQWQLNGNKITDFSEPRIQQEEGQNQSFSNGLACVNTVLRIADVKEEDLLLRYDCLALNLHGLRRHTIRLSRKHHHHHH
- ASSAY_DETAILS: SPR, mAb captured, ST2L-ECD in solution
VALUE_TYPE: koff
A complete answer gives the number and then names the unit.

STLM209 (antibody, V domains shown, frameworks VH3-23 / Vk-L6) VH: EVQLLESGGGLVQPGGSLRLSCAASGFTFSIYDMIWVRQAPGKGLEWVSTIRGEGGGTSYADSVKGRFTISRDNSKNTLYLQMNSLRAEDTAVYYCARDPWSTEGSFFVLDYWGQGTLVTVSS VL: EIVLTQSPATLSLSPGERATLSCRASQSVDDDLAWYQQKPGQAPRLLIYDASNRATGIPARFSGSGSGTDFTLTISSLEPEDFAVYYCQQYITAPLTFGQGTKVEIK :: 0.000311 s⁻¹
STLM107 (antibody, V domains shown, frameworks VH3-23 / Vk-L6) VH: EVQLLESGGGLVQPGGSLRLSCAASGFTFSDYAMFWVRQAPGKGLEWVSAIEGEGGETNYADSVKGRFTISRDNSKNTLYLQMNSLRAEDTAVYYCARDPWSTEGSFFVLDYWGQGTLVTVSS VL: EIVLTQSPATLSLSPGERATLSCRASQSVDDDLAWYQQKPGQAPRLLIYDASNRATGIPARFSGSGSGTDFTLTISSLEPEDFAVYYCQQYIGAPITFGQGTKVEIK :: 0.00065 s⁻¹

Please look up its koff: STLM221 (antibody, V domains shown, frameworks VH3-23 / Vk-L6) VH: EVQLLESGGGLVQPGGSLRLSCAASGFTFSIYDMFWVRQAPGKGLEWVSYIRGEGGDTNYADSVKGRFTISRDNSKNTLYLQMNSLRAEDTAVYYCARDPWSTEGSFFVLDYWGQGTLVTVSS VL: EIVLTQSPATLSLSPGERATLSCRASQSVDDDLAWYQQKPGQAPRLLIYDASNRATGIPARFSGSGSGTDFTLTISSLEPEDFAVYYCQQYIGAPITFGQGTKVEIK
0.00013 s⁻¹
